Each record here notes measured IC50 against C. gattii.
Test system: C. gattii
assay_remarks: Inhibition of growth of C. gattii, Example 2 antifungal assay
Type: cell-based
condition_summary: ½ strength PDB, 30° C., A595

[
  {
    "substance": "HXL004: Class I plant defensin from Nicotiana benthamiana (RTCESQSHRFKGLCFSRSNCASVCHTEGFNGGHCRGFRRRCFCTRHC; HXL004 Nicotiana benthamiana)",
    "test_system": "C. gattii",
    "IC50 against C. gattii (µg/mL)": 20
  },
  {
    "substance": "HXL008: Class I plant defensin from Picramnia pentandra (KVCTKPSKFFKGLCGTDGACTTACRKEGLHSGYCQLKGFLNSVCVCRKHC; HXL008 Picramnia pentandra)",
    "test_system": "C. gattii",
    "IC50 against C. gattii (µg/mL)": 12
  },
  {
    "substance": "HXL005: Class I plant defensin from Taraxcum kok-saghyz (KMCQTTSHAFSCVNDSGCSGSCEKQGFASGKCDGVRRRCTCYKKC; HXL005 Taraxcum kok-saghyz)",
    "test_system": "C. gattii",
    "IC50 against C. gattii (µg/mL)": 14
  },
  {
    "substance": "HXL001: Class I plant defensin from Zea mays (RHCLSQSHRFKGLCMSSNNCANVCQTENFPGGECKAEGATRKCFCKKIC; HXL001 Zea mays)",
    "test_system": "C. gattii",
    "IC50 against C. gattii (µg/mL)": 40
  },
  {
    "substance": "HXL002: Class I plant defensin from Triticum aestivum (RDCLSQSHKFKGACLSSSNCAAVCRTENFPDGECHTHNFARKCFCKRAC; HXL002 Triticum aestivum)",
    "test_system": "C. gattii",
    "IC50 against C. gattii (µg/mL)": 18
  }
]

====

System: C. gattii
assay_remarks: Inhibition of growth of C. gattii, Example 2 antifungal assay
Format: cell-based
condition_summary: ½ strength PDB, 30° C., A595
IC50 against C. gattii by entry:

[
  {
    "substance": "NaD1: Solanaceous Class II plant defensin from Nicotiana alata (RECKTESNTFPGICITKPPCRKACISEKFTDGHCSKILRRCLCTKPC; NaD1 Nicotiana alata)",
    "IC50 against C. gattii, µg/mL": 5
  },
  {
    "substance": "HXL003: Class I plant defensin from Triticum aestivum (ARDCTSQSHKFVGLCLSDRNCASVCLTEYFTGGKCDHRRCVCTKGC; HXL003 Triticum aestivum)",
    "IC50 against C. gattii, µg/mL": 20
  },
  {
    "substance": "HXL035: Class I plant defensin from Picramnia pentandra (KVCTKPSKFFKGLCGFDRDCTVACKKEGLASGFCQNKGFFNVVCVCRKPC; HXL035 Picramnia pentandra)",
    "IC50 against C. gattii, µg/mL": 20
  }
]

====

System: Trichophyton rubrum, T. interdigitale, Microsporum fulvum and C. albicans
assay_remarks: Inhibition assays of Example 1, summary across the range of fungal pathogens
Format: cell-based
condition_summary: summary of Table 3, at the concentrations tested
experimental_endpoint: Activity across the range of fungal pathogens

[
  {
    "substance": "HXL015: Class I plant defensin from Oryza sativa (RHCLSQSHRFKGMCVSSNNCANVCRTESFPDGECKSHGLERKCFCKKVC; HXL015 Oryza sativa)",
    "result_value": "intermediate activity"
  },
  {
    "substance": "HXL035: Class I plant defensin from Picramnia pentandra (KVCTKPSKFFKGLCGFDRDCTVACKKEGLASGFCQNKGFFNVVCVCRKPC; HXL035 Picramnia pentandra)",
    "result_value": "most effective"
  },
  {
    "substance": "HXL012: Class I plant defensin from Amaranthus retroflexus (RMCKAPSKLFRGMCGIRDSNCDSVCRAEGMAAGDCHGLRRRCICSRPC; HXL012 Amaranthus retroflexus)",
    "result_value": "intermediate activity"
  },
  {
    "substance": "HXL005: Class I plant defensin from Taraxcum kok-saghyz (KMCQTTSHAFSCVNDSGCSGSCEKQGFASGKCDGVRRRCTCYKKC; HXL005 Taraxcum kok-saghyz)",
    "result_value": "most effective"
  }
]

====

Test system: C. glabrata
assay_remarks: Inhibition of growth of C. glabrata, Example 2 antifungal assay
Format: cell-based
condition_summary: ½ strength PDB, 30° C., A595
experimental_endpoint: IC50 against C. glabrata (µg/mL)

[
  {
    "substance": "HXL009: Class I plant defensin from Zea mays (TVCMRHNNFYHGPCMSNKDCANSCVQHNLGVGGYCRGKIPFNKECMCTFEC; HXL009 Zea mays)",
    "test_system": "C. glabrata",
    "readout_relation": ">",
    "result_value": 100
  },
  {
    "substance": "HXL012: Class I plant defensin from Amaranthus retroflexus (RMCKAPSKLFRGMCGIRDSNCDSVCRAEGMAAGDCHGLRRRCICSRPC; HXL012 Amaranthus retroflexus)",
    "test_system": "C. glabrata",
    "readout_relation": ">",
    "result_value": 100
  },
  {
    "substance": "HXL004: Class I plant defensin from Nicotiana benthamiana (RTCESQSHRFKGLCFSRSNCASVCHTEGFNGGHCRGFRRRCFCTRHC; HXL004 Nicotiana benthamiana)",
    "test_system": "C. glabrata",
    "readout_relation": "=",
    "result_value": 20
  },
  {
    "substance": "HXL013: Class I plant defensin from Glycine max (KDCLTRRHGFQGRCLFDRQCAHVCRSDGFIGGQCRGPLRKCFCSRPC; HXL013 Glycine max)",
    "test_system": "C. glabrata",
    "readout_relation": "=",
    "result_value": 25
  },
  {
    "substance": "NaD1: Solanaceous Class II plant defensin from Nicotiana alata (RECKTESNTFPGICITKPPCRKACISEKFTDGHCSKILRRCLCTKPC; NaD1 Nicotiana alata)",
    "test_system": "C. glabrata",
    "readout_relation": "=",
    "result_value": 14
  }
]

====

Test system: T. interdigitale
assay_remarks: Inhibition of growth of T. interdigitale by plant defensins (microtitre A595 antifungal assay)
Type: cell-based, Trichophyton interdigitale
condition_summary: ½ strength PDB, 30° C.
experimental_endpoint: IC50 against T. interdigitale (µg/mL)

[
  {
    "substance": "HXL008: Class I plant defensin from Picramnia pentandra (KVCTKPSKFFKGLCGTDGACTTACRKEGLHSGYCQLKGFLNSVCVCRKHC; HXL008 Picramnia pentandra)",
    "test_system": "T. interdigitale",
    "unit_of_measurement": "µg/mL",
    "result_value": 3.5
  },
  {
    "substance": "HXL005: Class I plant defensin from Taraxcum kok-saghyz (KMCQTTSHAFSCVNDSGCSGSCEKQGFASGKCDGVRRRCTCYKKC; HXL005 Taraxcum kok-saghyz)",
    "test_system": "T. interdigitale",
    "unit_of_measurement": "µg/mL",
    "result_value": 3.5
  },
  {
    "substance": "HXL035: Class I plant defensin from Picramnia pentandra (KVCTKPSKFFKGLCGFDRDCTVACKKEGLASGFCQNKGFFNVVCVCRKPC; HXL035 Picramnia pentandra)",
    "test_system": "T. interdigitale",
    "unit_of_measurement": "µg/mL",
    "result_value": 1
  },
  {
    "substance": "HXL015: Class I plant defensin from Oryza sativa (RHCLSQSHRFKGMCVSSNNCANVCRTESFPDGECKSHGLERKCFCKKVC; HXL015 Oryza sativa)",
    "test_system": "T. interdigitale",
    "unit_of_measurement": "µg/mL",
    "result_value": 3.5
  },
  {
    "substance": "NaD1: Solanaceous Class II plant defensin from Nicotiana alata (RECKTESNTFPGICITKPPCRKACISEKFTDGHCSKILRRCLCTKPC; NaD1 Nicotiana alata)",
    "test_system": "T. interdigitale",
    "unit_of_measurement": "µg/mL",
    "result_value": 10
  },
  {
    "substance": "HXL004: Class I plant defensin from Nicotiana benthamiana (RTCESQSHRFKGLCFSRSNCASVCHTEGFNGGHCRGFRRRCFCTRHC; HXL004 Nicotiana benthamiana)",
    "test_system": "T. interdigitale",
    "unit_of_measurement": "µg/mL",
    "result_value": 19
  },
  {
    "substance": "HXL012: Class I plant defensin from Amaranthus retroflexus (RMCKAPSKLFRGMCGIRDSNCDSVCRAEGMAAGDCHGLRRRCICSRPC; HXL012 Amaranthus retroflexus)",
    "test_system": "T. interdigitale",
    "unit_of_measurement": "µg/mL",
    "result_value": 2
  }
]

====

Test system: M. fulvum
assay_remarks: Inhibition of growth of Microsporum fulvum by plant defensins (microtitre A595 antifungal assay)
Assay type: cell-based
condition_summary: ½ strength PDB, 30° C., A595
experimental_endpoint: IC50 against M. fulvum (µg/mL)

[
  {
    "substance": "HXL012: Class I plant defensin from Amaranthus retroflexus (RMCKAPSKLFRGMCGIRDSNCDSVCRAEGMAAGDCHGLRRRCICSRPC; HXL012 Amaranthus retroflexus)",
    "unit_of_measurement": "µg/mL",
    "readout_relation": "=",
    "result_value": 18
  },
  {
    "substance": "HXL004: Class I plant defensin from Nicotiana benthamiana (RTCESQSHRFKGLCFSRSNCASVCHTEGFNGGHCRGFRRRCFCTRHC; HXL004 Nicotiana benthamiana)",
    "unit_of_measurement": "µg/mL",
    "readout_relation": "=",
    "result_value": 12
  },
  {
    "substance": "HXL009: Class I plant defensin from Zea mays (TVCMRHNNFYHGPCMSNKDCANSCVQHNLGVGGYCRGKIPFNKECMCTFEC; HXL009 Zea mays)",
    "unit_of_measurement": "µg/mL",
    "readout_relation": ">",
    "result_value": 100
  },
  {
    "substance": "HXL001: Class I plant defensin from Zea mays (RHCLSQSHRFKGLCMSSNNCANVCQTENFPGGECKAEGATRKCFCKKIC; HXL001 Zea mays)",
    "unit_of_measurement": "µg/mL",
    "readout_relation": ">",
    "result_value": 100
  },
  {
    "substance": "HXL005: Class I plant defensin from Taraxcum kok-saghyz (KMCQTTSHAFSCVNDSGCSGSCEKQGFASGKCDGVRRRCTCYKKC; HXL005 Taraxcum kok-saghyz)",
    "unit_of_measurement": "µg/mL",
    "readout_relation": "=",
    "result_value": 5
  }
]
